# TESTED_SYSTEM: EphrinB2-EphB2 (Homo sapiens, UniProt P29323)
# Construct: soluble human EphB1-His, EphB2-His, and EphB4-His ectodomains; commercially available human EphrinB1-Fc (EB1), EphrinB2-Fc (EB2), and EphrinB3-Fc (EB3) ectodomain proteins; purchased
# ASSAY_METHOD_TEXT: Octet 80 sec association/500 sec dissociation, immobilized human EphrinB2-Fc binding to soluble human EphB2-His
# CONDITION_SET: EphB2; 25 nM EphB2; 3.2 μM compound; A20-I as max control; 0* = less than 0, no inhibition; read-out: % Inhibition: Association ONLY (80 sec)
We begin with a simple list: items and their reported inhibition at 3.2 µM.

>  <MOLECULE>
O=C(Cc1ccccc1)Nc1ccc(N2CCN(Cc3ccc(O)c4ncccc34)CC2)cc1 [Compound 51]

>  <inhibition at 3.2 µM, %>
64.8

$$$$
>  <MOLECULE>
COc1ccccc1N1CCN(Cc2cc(I)c(O)c3ncccc23)CC1 [Compound 71]

>  <inhibition at 3.2 µM, %>
58.7

$$$$
>  <MOLECULE>
Oc1ccc(CN2CCN(Cc3ccccc3)CC2)c2cccnc12 [Compound 41]

>  <inhibition at 3.2 µM, %>
9.1

$$$$
>  <MOLECULE>
O=[N+]([O-])c1cc(CN2CCS(=O)(=O)CC2)c2cccnc2c1O [Compound 20]

>  <inhibition at 3.2 µM, %>
36.7

$$$$

====

# TESTED_SYSTEM: EphrinB2-EphB2 (Homo sapiens)
# Construct: soluble human EphB1-His, EphB2-His, and EphB4-His ectodomains; commercially available human EphrinB1-Fc (EB1), EphrinB2-Fc (EB2), and EphrinB3-Fc (EB3) ectodomain proteins; purchased
# Sequence (P29323 19-543 limits assumed): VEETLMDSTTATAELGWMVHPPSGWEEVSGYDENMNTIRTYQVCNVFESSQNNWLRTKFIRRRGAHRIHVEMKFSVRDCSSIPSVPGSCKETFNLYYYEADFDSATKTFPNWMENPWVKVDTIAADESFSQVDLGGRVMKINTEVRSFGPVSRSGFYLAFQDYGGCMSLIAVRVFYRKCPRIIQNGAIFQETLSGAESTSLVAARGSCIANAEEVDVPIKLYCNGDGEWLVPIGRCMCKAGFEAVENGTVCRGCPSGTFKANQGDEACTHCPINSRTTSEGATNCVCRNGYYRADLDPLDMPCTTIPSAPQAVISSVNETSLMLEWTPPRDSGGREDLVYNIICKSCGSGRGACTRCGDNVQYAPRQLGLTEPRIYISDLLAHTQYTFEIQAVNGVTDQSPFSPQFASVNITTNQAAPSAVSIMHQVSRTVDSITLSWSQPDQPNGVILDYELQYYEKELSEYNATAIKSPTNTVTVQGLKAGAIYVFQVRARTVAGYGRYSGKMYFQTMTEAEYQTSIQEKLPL
# ASSAY_METHOD_TEXT: Octet tetramerization inhibition, immobilized human EphrinB2 binding to 50 nM soluble human EphB2
# CONDITION_SET: Relative Dissociation IC50 (450 sec), Table A, EphrinB2-EphB2
We begin with a simple list: items and their reported IC50.
MEASUREMENT_LABEL: IC50 (nM)

>  <COMPOUND>
Oc1c(Cl)cc(CN2CCOCC2)c2cccnc12 [Compound 3]

>  <MEASUREMENT_LABEL>
IC50

>  <COMPARISON_OPERATOR>
=

>  <QUANTITATIVE_READOUT>
1050

$$$$
>  <COMPOUND>
Cc1ccc2c(CN3CCOCC3)cc(Br)c(O)c2n1

>  <MEASUREMENT_LABEL>
IC50

>  <COMPARISON_OPERATOR>
>

>  <QUANTITATIVE_READOUT>
3200

$$$$
>  <COMPOUND>
Oc1ccc(CN2CCN(c3ccc(Br)cn3)CC2)c2cccnc12

>  <MEASUREMENT_LABEL>
IC50

>  <COMPARISON_OPERATOR>
=

>  <QUANTITATIVE_READOUT>
2240

$$$$
>  <COMPOUND>
OCc1ccc2c(CN3CCOCC3)ccc(O)c2n1

>  <MEASUREMENT_LABEL>
IC50

>  <COMPARISON_OPERATOR>
=

>  <QUANTITATIVE_READOUT>
1480

$$$$

Just for reference, patent US20260374739A1 is where these values come from.
